Sourced from patent US5688950A

Target system: D3 receptor (Chlorocebus aethiops, UniProt P52703)
Construct: expressed in transfected cells; host or cells: COS cells
Sequence (P52703 whole entry): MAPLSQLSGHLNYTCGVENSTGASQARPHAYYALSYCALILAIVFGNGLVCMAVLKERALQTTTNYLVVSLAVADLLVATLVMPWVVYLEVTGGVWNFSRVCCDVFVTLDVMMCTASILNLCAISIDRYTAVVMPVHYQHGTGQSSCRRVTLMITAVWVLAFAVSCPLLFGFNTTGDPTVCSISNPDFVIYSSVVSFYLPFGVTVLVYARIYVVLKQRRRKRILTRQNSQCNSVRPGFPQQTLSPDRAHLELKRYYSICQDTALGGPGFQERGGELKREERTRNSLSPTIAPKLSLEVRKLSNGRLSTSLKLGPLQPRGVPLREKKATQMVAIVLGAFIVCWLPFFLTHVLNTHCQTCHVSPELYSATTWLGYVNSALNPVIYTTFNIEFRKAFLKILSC
Test: D3 receptor binding activity (pellets of COS cells, 3H-YM 09151-2)
Parameters: species or system African Green monkey
Where a name gives a salt, the structure may show the parent alone.
Measure name: Ki (nM)
Write the value in nM as a bare number.

Lab book: Ki of O=C(NCCCCN1CCC2=C(CCc3ccccc32)C1)c1ccc(-c2ccccc2)cc1 [Compound 13, hydrochloride] noted as 10

----------
Measured pKi, listed per entry for reference.
Target system: D2 receptor (Chlorocebus aethiops, UniProt P52702)
Construct: expressed in transfected cells; host or cells: COS cells
Sequence (P52702 whole entry): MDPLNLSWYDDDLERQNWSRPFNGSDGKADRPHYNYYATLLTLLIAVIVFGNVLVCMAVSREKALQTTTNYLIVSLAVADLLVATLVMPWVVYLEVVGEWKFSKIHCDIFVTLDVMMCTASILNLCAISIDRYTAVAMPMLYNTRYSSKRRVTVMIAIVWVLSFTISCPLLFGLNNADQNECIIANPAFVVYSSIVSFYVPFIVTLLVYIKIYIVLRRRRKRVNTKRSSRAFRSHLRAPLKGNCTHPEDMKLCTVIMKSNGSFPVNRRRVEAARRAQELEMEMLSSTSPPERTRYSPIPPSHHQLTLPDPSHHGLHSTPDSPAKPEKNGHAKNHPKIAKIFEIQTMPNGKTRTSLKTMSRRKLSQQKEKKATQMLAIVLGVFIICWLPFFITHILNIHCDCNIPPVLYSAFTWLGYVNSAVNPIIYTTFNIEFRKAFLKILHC
Test: D2 receptor binding activity (pellets of COS cells, 3H-YM 09151-2)
Design: species or system African Green monkey
Test conditions: 0.5 nM 3H-YM 09151-2, pH 7.4; nonspecific with 1 mM spiperone
Counter-ions that a name gives are not always drawn.
// returns pKi (minus log10 of molar concentration), number only

// solved cases for pKi follow
[
  {
    "Compound": "O=C(NCCCCN1CCN2c3ccccc3CCC2C1)c1ccc2c(c1)Cc1ccccc1-2 (centres unmarked) [Compound 14, hydrochloride]",
    "Target system": "D2 receptor (Chlorocebus aethiops, UniProt P52702)",
    "Value": 6.70
  },
  {
    "Compound": "O=C(NCCCCN1CCc2c(ccc3ccccc23)C1)c1cnc2ccccc2n1 [Compound 8, hydrochloride]",
    "Target system": "D2 receptor (Chlorocebus aethiops, UniProt P52702)",
    "Value": 6.60
  },
  {
    "Compound": "O=C(NCCCCN1CCc2c(ccc3ccccc23)C1)c1ccc2sc3ccccc3c2c1 [Compound 7, hydrochloride]",
    "Target system": "D2 receptor (Chlorocebus aethiops, UniProt P52702)",
    "Value": 6.42
  },
  {
    "Compound": "O=C(NCCCCN1CCc2c(ccc3ccccc23)C1)c1cnc2ccccc2c1 [Compound 1, hydrochloride]",
    "Target system": "D2 receptor (Chlorocebus aethiops, UniProt P52702)",
    "Value": 6.90
  }
]

Now look at this one.
Record O=C(NCCCCN1CCC2=C(CCc3ccccc32)C1)c1ccc(-c2ccccc2)cc1 [Compound 13, hydrochloride] ; system D2 receptor (Chlorocebus aethiops, UniProt P52702); pKi = 6.44

----------
Target system: D3 receptor (Chlorocebus aethiops)
Construct: expressed in transfected cells; host or cells: COS cells
Test: D3 receptor binding activity (pellets of COS cells, 3H-YM 09151-2)
Set-up: species or system African Green monkey
Test conditions: 0.5 nM 3H-YM 09151-2, pH 7.4; nonspecific with 1 mM spiperone; read-out: D3 Ki
Where a name gives a salt, the structure may show the parent alone.
Measure name: pKi
// returns pKi (minus log10 of molar concentration), number only

[
  {
    "Compound": "O=C(NCCCCN1CCc2c(ccc3ccccc23)C1)c1cnc2ccccc2c1 [Compound 1, hydrochloride]",
    "pKi": 8.10
  },
  {
    "Compound": "O=C(NCCCCN1CCc2c(ccc3ccccc23)C1)c1ccc2sc3ccccc3c2c1 [Compound 7, hydrochloride]",
    "pKi": 8.30
  },
  {
    "Compound": "O=C(NCCCCN1CCN2c3ccccc3CCC2C1)c1ccc2c(c1)Cc1ccccc1-2 (stereo not shown) [Compound 14, hydrochloride]",
    "pKi": 8.05
  }
]

Now look at this one.
Lab book: pKi of O=C(NCCCCN1CCc2c(ccc3ccccc23)C1)c1cnc2ccccc2n1 [Compound 8, hydrochloride] noted as 7.92
